- MEASURED_ON: IgE-Tb / soluble IgE receptor FcεRIα with a Y131A mutation (Homo sapiens, UniProt P01854, N146Q/N252Q)
- Construct: fused on or other part: Terbium chelate (LanthaScreen amine-reactive) on IgE-Fc; Alexa Fluor 488 hydrazide on the oxidised glycans of sFcεRIα; Both are labels and no part of the key
- Sequence (P01854 104-427 N146Q/N252Q): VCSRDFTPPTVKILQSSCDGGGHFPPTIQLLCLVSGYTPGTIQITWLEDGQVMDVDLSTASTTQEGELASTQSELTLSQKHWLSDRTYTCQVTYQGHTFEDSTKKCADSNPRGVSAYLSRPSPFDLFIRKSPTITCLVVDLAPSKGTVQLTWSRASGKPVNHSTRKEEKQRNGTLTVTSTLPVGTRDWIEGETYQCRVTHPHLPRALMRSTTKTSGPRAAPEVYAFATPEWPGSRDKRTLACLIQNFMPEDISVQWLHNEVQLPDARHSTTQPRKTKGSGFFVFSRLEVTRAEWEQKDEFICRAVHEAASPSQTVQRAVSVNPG
- Sequence (P12319 26-201 Y156A partner): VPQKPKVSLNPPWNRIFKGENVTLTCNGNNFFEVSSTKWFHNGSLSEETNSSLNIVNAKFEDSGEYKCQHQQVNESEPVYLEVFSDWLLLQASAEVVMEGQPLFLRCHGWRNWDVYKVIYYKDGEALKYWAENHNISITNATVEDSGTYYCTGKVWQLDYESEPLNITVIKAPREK
- PROTOCOL_DESCRIPTION: in vitro FRET assay: binding of IgE-Tb to receptor FcεRIα-Y131A-AF488 and its inhibition by compounds
- ASSAY_CONTEXT: 5 nM IgE-Tb, 25 nM FcεRIα-Y131A-AF488, 2 hours at room temperature; read-out: FRET IC50 range
pIC50: −log10 of the molar value. Where a name gives a salt, the structure may show the parent alone.
Entries and their measured pIC50 follow.

A selection of reference data follows.
INSERT INTO measurements (compound, result) VALUES
  ('CC(C)CNS(=O)(=O)c1c2c(cc3cnc(C4CC4)cc13)CC(Nc1ccc(C(=O)O)nc1)C2 (centres unmarked) [Example 88, hydrochloride]', '7.00 to 7.30'),
  ('CC(C)(F)CNS(=O)(=O)c1c2c(cc3cnc(C4CC4)cc13)CC(Nc1cncc(C#N)c1)C2 (centres unmarked)', '5.70 to 7.00'),
  ('CC(C)(F)CNS(=O)(=O)c1c2c(cc3cnc(C4CC4)cc13)C[C@@H](Nc1ccc(S(N)(=O)=O)nc1)C2', '7.30 to 8.00'),
  ('CC(C)(F)CNS(=O)(=O)c1c2c(cc3cnc(C4CC4)cc13)CC(NC1=CC(=O)OC1)C2 (centres unmarked)', '5.70 to 7.00'),
  ('CC(C)(F)CNS(=O)(=O)c1c2c(cc3cnc(C4CC4)cc13)C[C@@H](NC(=O)c1nccc3ccccc13)C2', '5.70 to 7.00');

Now look at this entry.
Task: Sample O=S(=O)(NC1CC(F)(F)C1)c1c2c(cc3cnc(C4CC4)cc13)CC(Nc1ccc(C3(O)COC3)nc1)C2 (centres unmarked) — what was its pIC50?
Result: 7.30 to 8.00

* * *

- MEASURED_ON: IgE-Tb / soluble IgE receptor FcεRIα with a Y131A mutation (Homo sapiens, UniProt P01854, N146Q/N252Q)
- Construct: fused on or other part: Terbium chelate (LanthaScreen amine-reactive) on IgE-Fc; Alexa Fluor 488 hydrazide on the oxidised glycans of sFcεRIα; Both are labels and no part of the key
- PROTOCOL_DESCRIPTION: in vitro FRET assay: binding of IgE-Tb to receptor FcεRIα-Y131A-AF488 and its inhibition by compounds
- ASSAY_CONTEXT: 5 nM IgE-Tb, 25 nM FcεRIα-Y131A-AF488, 2 hours at room temperature; read-out: FRET IC50 range
Entries and their measured IC50 follow.

A selection of reference data follows.
INSERT INTO results (molecule, result) VALUES
  ('CC(C)(F)CNS(=O)(=O)c1c2c(cc3cnc(C4CC4)cc13)CC1(COC(=O)N1)C2 (stereo not shown) [Example 49]', '0.1 to 2 µM'),
  ('CC(C)CNS(=O)(=O)c1c2c(cc3cnc(C4CC4)cc13)CC(NS(C)(=O)=O)C2 (stereo not shown) [Example 55]', '0.05 to 0.1 µM'),
  ('CC(C)(F)CNS(=O)(=O)c1c2c(cc3cnc(C4CC4)cc13)C[C@@H](NC(=O)c1ccc3c(c1)CN(C(=O)OC(C)(C)C)C3)C2 [Example 136]', '0.01 to 0.05 µM'),
  ('Cn1ncc2c(NC3Cc4cc5cnc(C6CC6)cc5c(S(=O)(=O)NCC(C)(C)F)c4C3)cncc21 (stereo not shown) [Example 84]', '0.01 to 0.05 µM'),
  ('CCNC(=O)CN1Cc2cc3cnc(C4CC4)cc3c(S(=O)(=O)NCC(C)C)c2C1 [Example 59]', '0.1 to 2 µM');

Task: Sample CC(C)(F)CNS(=O)(=O)c1c2c(cc3cnc(C4CC4)cc13)C[C@@H](Nc1cncnc1OC1CCOCC1)C2 [Example 120] — what was its IC50?
Result: 0.05 to 0.1 µM

Task: Sample CC(C)(F)CNS(=O)(=O)c1c2c(cc3cnc(C4CC4)cc13)C[C@@H](Nc1cnc(Cl)cc1OCC1CC1)C2 [Example 119] — what was its IC50?
Result: 0.05 to 0.1 µM
